Reference for the values: patent US20240166765A1

// Kd lookup, one value per entry
molecular target: T1, human TF ECD-His6 (human, UniProt P13726 33-251); test: SPR (Biacore), antibody on chip, TF-His titrated
T1 construct: made in Expi293 cells; the entry holds the ECD with the C-terminal TG-His6; also called TF-His; hTF
Express the result in nM but write the number alone.

>>> observed_value("25A (antibody, human IgG1, V domains shown, human IgG1) VH: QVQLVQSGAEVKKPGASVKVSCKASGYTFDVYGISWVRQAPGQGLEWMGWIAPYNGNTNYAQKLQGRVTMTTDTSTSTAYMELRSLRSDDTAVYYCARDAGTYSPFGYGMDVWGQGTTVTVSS VL: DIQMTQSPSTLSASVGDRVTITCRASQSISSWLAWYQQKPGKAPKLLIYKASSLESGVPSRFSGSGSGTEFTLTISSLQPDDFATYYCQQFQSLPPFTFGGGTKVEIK")
6.2
>>> observed_value("25A5 (antibody, human IgG1, kappa, V domains shown, human IgG1) VH: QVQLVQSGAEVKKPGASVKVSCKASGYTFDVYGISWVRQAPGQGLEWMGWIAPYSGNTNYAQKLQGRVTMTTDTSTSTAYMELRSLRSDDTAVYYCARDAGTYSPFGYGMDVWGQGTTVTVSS VL: DIQMTQSPSTLSASVGDRVTITCRASESISNWLAWYQQKPGKAPKLLIYKAYSLEYGVPSRFSGSGSGTEFTLTISSLQPDDFATYYCQQFQKLPPFTFGGGTKVEIKR")
0.08
>>> observed_value("43D (antibody, human IgG1, V domains shown, human IgG1) VH: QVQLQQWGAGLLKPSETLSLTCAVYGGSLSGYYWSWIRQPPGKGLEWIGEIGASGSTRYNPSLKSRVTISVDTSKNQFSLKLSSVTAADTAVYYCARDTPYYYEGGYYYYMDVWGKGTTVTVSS VL: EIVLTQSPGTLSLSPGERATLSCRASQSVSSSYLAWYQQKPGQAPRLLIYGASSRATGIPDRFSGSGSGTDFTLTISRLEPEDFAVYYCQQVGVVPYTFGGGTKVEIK")
2.09

Now consider the entry below.
Quick note, Kd for 43B (antibody, human IgG1, V domains shown, human IgG1) VH: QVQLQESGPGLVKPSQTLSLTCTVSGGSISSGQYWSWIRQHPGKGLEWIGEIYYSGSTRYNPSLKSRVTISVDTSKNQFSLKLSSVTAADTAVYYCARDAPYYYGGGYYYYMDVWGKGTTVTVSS VL: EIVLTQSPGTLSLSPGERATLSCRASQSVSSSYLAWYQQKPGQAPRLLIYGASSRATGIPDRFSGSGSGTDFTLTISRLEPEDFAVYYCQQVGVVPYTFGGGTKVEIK landed at 1.75
